Could you please report measured pIC50 for the items listed next?
- testedSystem: recombinant HCV NS5B (HCV RNA-dependent RNA polymerase) (Hepatitis C virus genotype 1b, UniProt P26663)
- Sequence (P26663 2420-3010 limits assumed): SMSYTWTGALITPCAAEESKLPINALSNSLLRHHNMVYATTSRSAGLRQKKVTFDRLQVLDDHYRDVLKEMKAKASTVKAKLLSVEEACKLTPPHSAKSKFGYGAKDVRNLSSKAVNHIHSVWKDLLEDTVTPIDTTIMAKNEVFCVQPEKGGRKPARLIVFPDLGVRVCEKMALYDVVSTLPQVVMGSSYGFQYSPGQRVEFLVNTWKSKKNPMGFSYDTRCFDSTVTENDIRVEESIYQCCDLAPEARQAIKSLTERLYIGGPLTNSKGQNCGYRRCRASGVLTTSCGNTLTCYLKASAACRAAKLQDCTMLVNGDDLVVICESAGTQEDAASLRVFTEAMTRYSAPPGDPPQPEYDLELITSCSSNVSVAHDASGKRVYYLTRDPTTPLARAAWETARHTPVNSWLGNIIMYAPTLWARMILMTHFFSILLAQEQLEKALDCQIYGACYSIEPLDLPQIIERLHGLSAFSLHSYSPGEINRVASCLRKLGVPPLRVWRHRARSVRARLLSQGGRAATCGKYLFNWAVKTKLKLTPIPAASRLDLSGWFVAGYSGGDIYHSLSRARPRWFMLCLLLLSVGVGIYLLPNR
- assayOverview: biochemical
- setupConditions: HCV polymerase activity, list of compounds of Example 27; read-out: IC50 (polymerase activity)
pIC50: −log10 of the molar value.

Would you please look over these solved cases?
CC(C)CC(=O)N(Cc1ccc([N+](=O)[O-])cc1)c1cc(-c2ccccc2)sc1C(=O)O; > 5.30
CC(C)C(=O)N(Cc1ccc(C(F)(F)F)cc1)c1cc(-c2ccccc2)sc1C(=O)O; 4.70 to 5.30
CC(C)N(C(=O)c1ccc(Cl)cc1Cl)c1cc(C2=CCN(C(=O)OCc3ccccc3)CC2)sc1C(=O)O; > 5.30

Then this compound:
The reported pIC50 of the compound CC(C1CCN(C(=O)OCc2ccccc2)CC1)N(C(=O)c1ccc(Cl)cc1Cl)c1cc(-c2ccccc2)sc1C(=O)O (stereo not shown) was 4.70 to 5.30

* * *

- testedSystem: recombinant HCV NS5B (HCV RNA-dependent RNA polymerase) (Hepatitis C virus genotype 1b)
- assayOverview: biochemical
- setupConditions: related polymerase activity (Example 27 list); read-out: IC50
Could you please report measured IC50 for the items listed next?

Dear colleague, could you send me IC50 for each of the items below? Thanks.
1. Cc1ccc(S(=O)(=O)Nc2cc(-c3ccc(CO)cc3)sc2C(=O)O)c(C)c1 [Compound 320]
2. CCS(=O)(=O)Nc1cc(-c2ccccc2)sc1C(=O)O [Compound 242]
3. Cc1ccc(C(=O)N(C)c2cc(-c3ccc(C#N)cc3)sc2C(=O)O)cc1 [Compound 193]

Result block:
< 5 µM
5 to 20 µM
5 to 20 µM

* * *

- testedSystem: recombinant HCV NS5B (HCV RNA-dependent RNA polymerase) (Hepatitis C virus genotype 1b)
- assayOverview: biochemical
- setupConditions: HCV polymerase activity, list of compounds of Example 27; read-out: IC50 (polymerase activity)
measuredEndpoint: IC50

Would you please look over these solved cases?
CC(C)N(C(=O)C12CC3CC(CC(C3)C1)C2)c1cc(-c2ccccc2)sc1C(=O)O; > 20 µM
Cc1ccc(S(=O)(=O)Nc2cc(-c3ccccc3)sc2C(=O)NCC(=O)O)cc1; 5 to 20 µM

Then this compound:
The reported IC50 of the compound CCC1CCC(C(=O)N(c2cc(-c3ccccc3)sc2C(=O)O)C(C)C)CC1 (stereo not drawn) was < 5 µM

* * *

- testedSystem: recombinant HCV NS5B (HCV RNA-dependent RNA polymerase) (Hepatitis C virus genotype 1b, UniProt P26663)
- assayOverview: biochemical
- setupConditions: related polymerase activity (Example 27 list); read-out: IC50
measuredEndpoint: IC50

Would you please look over these solved cases?
C=CCN(C(=O)Cc1cccc(C)c1)c1cc(-c2ccccc2)sc1C(=O)O [Compound 354]; 5 to 20 µM
COc1ccc(-c2cc(NS(=O)(=O)c3ccc(C)cc3C)c(C(=O)O)s2)cc1 [Compound 361]; < 5 µM
COc1ccccc1-c1cc(NS(=O)(=O)c2ccccc2C)c(C(=O)O)s1 [Compound 104]; 5 to 20 µM

The reported IC50 of the compound O=C(O)c1sc(-c2ccccc2)cc1N(Cc1ccc(-c2ccc(F)c(Cl)c2)s1)C(=O)c1ccc(Cl)cc1Cl [Compound 111] was < 5 µM
